# target-or-test-system: human D4 receptor (Homo sapiens (Human))
# Sequence (P21917 whole entry): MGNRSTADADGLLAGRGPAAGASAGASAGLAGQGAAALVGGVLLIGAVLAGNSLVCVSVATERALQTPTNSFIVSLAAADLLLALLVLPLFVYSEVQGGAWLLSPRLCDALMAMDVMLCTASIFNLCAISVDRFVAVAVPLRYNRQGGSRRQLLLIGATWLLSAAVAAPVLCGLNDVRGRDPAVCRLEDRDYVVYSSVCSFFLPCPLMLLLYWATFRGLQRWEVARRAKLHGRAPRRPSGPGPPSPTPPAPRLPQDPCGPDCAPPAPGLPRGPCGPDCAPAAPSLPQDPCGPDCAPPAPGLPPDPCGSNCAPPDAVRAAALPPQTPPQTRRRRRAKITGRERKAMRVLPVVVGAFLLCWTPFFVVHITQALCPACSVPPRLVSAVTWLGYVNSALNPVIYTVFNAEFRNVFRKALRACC
# method-description: Test 1: agonistic activity for human D4 receptor (aequorin/Gα16 luminescence in CHO-K1 cell)
# condition-context: CHO-K1 cell, aequorin luminescence
Each entry below lists one item and its recorded pEC50 value.
As a rule, pEC50 stands for the negative log10 of the concentration, concentration in M.

Look over these answered cases.
>>> observed_measurement("O=C(NCCN1CCC(c2cccc(C(F)(F)F)n2)CC1)C1CCC(F)(F)CC1")
7.92
>>> observed_measurement("Cc1cccc(C2CCN(CCNC(=O)C3CCOCC3)CC2)n1")
7.43
>>> observed_measurement("O=C(NCCN1CCC(c2cccc(C(F)(F)F)n2)CC1)C1CCCOC1 (centres unmarked)")
7.23
>>> observed_measurement("O=C(NCCN1CC=C(c2cccc(C(F)(F)F)n2)CC1)C1CCCOC1 (centres unmarked)")
7.51
>>> observed_measurement("O=C(NCCN1CC=C(c2cccc(C(F)(F)F)n2)CC1)C1CCOCC1")
8.05

Give a short answer stating reported pEC50 for CN(C)c1cccc(C2CCN(CCNC(=O)C3CCOCC3)CC2)n1 .
7.38

Indicate the recorded pEC50 value for this compound: Cc1cccc(C2CCN(CCNC(=O)C3CCCOC3)CC2)n1 (centres unmarked)
7.39
